- Test system: Staph. aureus (Pen-Res) A-9606
- procedure.details: MIC, tube dilution, Staphylococcus aureus A9606 (Pen-Res)
- Type: cell-based
- measurement.context: Staphylococcus aureus, Staph. aureus A9606 (Pen-Res); overnight 37° C.; read-out: Minimum Inhibitory Concentration (M.I.C.)
assay.endpoint: MIC (µg/mL)
Please state the figure in µg/mL; there is no need to write the unit.

Past entries and their recorded results:
# compound, assay.endpoint, measurement
records = [
    ("NCCCC1=C(C(=O)O)N2C(=O)CC2S1 (centres unmarked) [Example 22, Sodium 2-Aminopropylpenem-3-carboxylate]", "MIC", 63),
    ("N[C@H]1C[C@H](C2=C(C(=O)O)N3C(=O)C[C@H]3S2)C1 [Example 75]", "MIC", 63),
    ("NCCCCCC1=C(C(=O)O)N2C(=O)C[C@H]2S1 [Example 87]", "MIC", 4),
    ("O=C(O)C1=C(C2CCC2)SC2CC(=O)N12 (centres unmarked) [Example 21, 2-Cyclobutylpenem-3-carboxylic Acid]", "MIC", 8),
]

Here is the next item to consider.
Query MIC on Staph. aureus (Pen-Res) A-9606 for O=C(O)C1=C(CCCNO)SC2CC(=O)N12 (centres unmarked) [Example 26]
8

Numbers sourced from patent US4272437A.
